The values you see were collected from ChEMBL document CHEMBL4418497.

# MEASURED_TARGET: Serine hydroxymethyltransferase, mitochondrial (Homo sapiens, UniProt P34897)
# Sequence (P34897 whole entry): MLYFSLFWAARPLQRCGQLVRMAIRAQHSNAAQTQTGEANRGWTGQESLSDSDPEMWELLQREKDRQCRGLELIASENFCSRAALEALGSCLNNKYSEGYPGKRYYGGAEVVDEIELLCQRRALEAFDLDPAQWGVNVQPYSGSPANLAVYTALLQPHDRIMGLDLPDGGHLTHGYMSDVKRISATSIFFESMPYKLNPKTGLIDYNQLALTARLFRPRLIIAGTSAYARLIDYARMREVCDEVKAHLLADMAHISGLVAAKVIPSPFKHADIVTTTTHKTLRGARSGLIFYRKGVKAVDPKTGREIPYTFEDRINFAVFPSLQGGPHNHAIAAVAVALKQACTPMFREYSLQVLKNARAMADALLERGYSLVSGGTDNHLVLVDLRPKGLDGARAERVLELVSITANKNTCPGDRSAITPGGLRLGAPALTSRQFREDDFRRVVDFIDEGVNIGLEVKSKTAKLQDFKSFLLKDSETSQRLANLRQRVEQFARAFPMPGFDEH
# ASSAY_OVERVIEW: Inhibition of His-tagged human recombinant SHMT2 expressed in Escherichia coli BLR(DE3) assessed as reduction in NADPH level using L-serine, THF and NADP+ incubated for 5 mins by SHMT2-MTHFD coupled reaction based fluorescence assay
# TEST_SETTINGS: read-out: IC50
MEASURED_ATTRIBUTE: pIC50
One number for each entry, as −log10 of the molar value.

Example entries and their recorded answers appear below.
>>> value_measured("CC(C)Cn1cc(NC(=O)NC2CCCC2)c2ccccc2c1=O")
5.65
>>> value_measured("CC(C)Cn1cc(NC(=O)N2CCN(C(=O)c3ccco3)CC2)c2ccccc2c1=O")
5.34

I'm hoping you can list pIC50 for every molecule here, please.
1. COc1cc(NC2=C(c3ccccc3)C(=O)c3ccccc32)cc(OC)c1
2. CCC(Sc1nc2ncccc2o1)C(=O)Nc1c(C)cc(C)cc1C (centres undefined)
3. COc1cc(OC)c(NC(=O)N2CCN3CCCCC3C2)cc1Cl (centres undefined)
4. CCOC(=O)CSc1nc2ccc(N)cc2s1
5. CNc1nc2[nH]c(=O)cc(O)c2s1
6. CC(C)Cn1cc(NC(=O)N(Cc2ccco2)C2CCCCC2C)c2ccccc2c1=O (centres undefined)
7. COc1ccc(NC(=O)N2CCC3(CC2)Nc2ccccc2-n2cccc23)c(OC)c1
8. CC(C)Cn1cc(NC(=O)NCCCN2CCCC(C)C2)c2ccccc2c1=O (centres undefined)

1. 4.94
2. 5.60
3. 5.57
4. 6.15
5. 5.60
6. 5.20
7. 5.46
8. 5.61

* * *

# MEASURED_TARGET: UniProt P34897
# Sequence (P34897 whole entry): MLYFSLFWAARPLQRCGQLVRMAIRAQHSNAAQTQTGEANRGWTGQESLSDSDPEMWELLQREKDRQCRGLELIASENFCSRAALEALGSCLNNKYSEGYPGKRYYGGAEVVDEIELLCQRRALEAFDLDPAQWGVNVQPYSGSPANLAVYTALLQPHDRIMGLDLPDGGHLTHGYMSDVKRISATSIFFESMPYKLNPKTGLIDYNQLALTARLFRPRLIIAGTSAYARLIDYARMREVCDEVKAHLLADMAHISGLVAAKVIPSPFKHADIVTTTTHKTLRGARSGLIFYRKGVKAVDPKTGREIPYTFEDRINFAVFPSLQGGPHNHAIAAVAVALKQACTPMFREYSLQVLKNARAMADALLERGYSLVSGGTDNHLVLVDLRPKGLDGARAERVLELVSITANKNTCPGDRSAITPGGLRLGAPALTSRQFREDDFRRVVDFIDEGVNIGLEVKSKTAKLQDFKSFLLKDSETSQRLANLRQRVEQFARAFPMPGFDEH
# ASSAY_OVERVIEW: Inhibition of His-tagged human recombinant SHMT2 expressed in Escherichia coli BLR(DE3) assessed as reduction in NADPH level using L-serine, THF and NADP+ incubated for 5 mins by SHMT2-MTHFD coupled reaction based fluorescence assay
# TEST_SETTINGS: read-out: IC50
Assign pIC50 to each entry below.
Give bare numbers, as −log10 of the molar value.

Example entries and their recorded answers appear below.
>>> value_measured("COc1ccc(Nc2nc(Nc3ccccc3)c3cnn(C)c3n2)c(OC)c1")
5.48
>>> value_measured("COc1c(C)cnc(CSc2nc3ncccc3o2)c1C")
5.39
>>> value_measured("COc1ccc(Nc2ncnc3sc(C(=O)O)cc23)c(OC)c1")
5.87

I'm hoping you can list pIC50 for every compound here, please.
1. CC(C)Cn1cc(NC(=O)N2CCCc3ccccc32)c2ccccc2c1=O
2. CCOc1ccc2nc(NC(=O)CSc3nc4ncccc4o3)sc2c1
3. CC(=O)Nc1ncc2c(n1)CC(c1ccco1)CC2=O (stereo not drawn)
4. CCCN1CCN(CCCNC(=O)c2oc3c(c2C)-c2[nH]ncc2CC3)CC1

1: 5.52; 2: 5.36; 3: 5.34; 4: 5.29

* * *

# MEASURED_TARGET: Serine hydroxymethyltransferase, mitochondrial (Homo sapiens)
# ASSAY_OVERVIEW: Inhibition of His-tagged human recombinant SHMT2 expressed in Escherichia coli BLR(DE3) assessed as reduction in NADPH level using L-serine, THF and NADP+ incubated for 5 mins by SHMT2-MTHFD coupled reaction based fluorescence assay
# TEST_SETTINGS: read-out: IC50
MEASURED_ATTRIBUTE: IC50 (µM)
Answers are plain numbers, in µM.

I'm hoping you can list IC50 for every molecule here, please.
1. CCNc1nc2[nH]c(=O)cc(O)c2s1
2. COc1cc(NC(=O)n2ncc3cc(Cl)ccc32)cc(OC)c1
3. CC(C)Cn1cc(NC(=O)NCCN2CCN(C)CC2)c2ccccc2c1=O

1: 1.91; 2: 11.8; 3: 2.45

I'm hoping you can list IC50 for every molecule here, please.
1. Cn1nc(C(=O)N2CC=C(c3ccccc3)CC2)c2c1-c1ccsc1CC2
2. COc1cc(NC(=O)C2CCC2)cc2sc(NS(=O)(=O)c3ccccc3)nc12
3. COc1cccc(C2CC(=O)N3CN(c4ccc(OC)cc4OC)CSC3=C2C#N)c1 (stereo unspecified)
4. O=c1c(Nc2cccc3c2CCCC3)c(-c2ccc(Cl)cc2)c1=O
5. O=C(Nc1ccc(Br)cc1F)N1CCSc2ncccc21
6. COc1cc(NC(=O)C2=Cc3sc(C)c(C)c3CS2)cc(OC)c1
7. Cc1c(C(=O)NCCN2CCOCC2)oc2c1-c1[nH]ncc1CC2

1: 0.85; 2: 8.13; 3: 4.37; 4: 5.25; 5: 7.59; 6: 6.76; 7: 3.55

Could you please provide reported IC50 for `COc1ccc(NCc2cccn2-c2nnc(N3CCCCC3)s2)cc1OC` ? Thanks! 3.39

* * *

# MEASURED_TARGET: Serine hydroxymethyltransferase, mitochondrial (Homo sapiens, UniProt P34897)
# ASSAY_OVERVIEW: Inhibition of His-tagged human recombinant SHMT2 expressed in Escherichia coli BLR(DE3) assessed as reduction in NADPH level using L-serine, THF and NADP+ incubated for 5 mins by SHMT2-MTHFD coupled reaction based fluorescence assay
# TEST_SETTINGS: read-out: IC50
Assign pIC50 to each entry below.
Give bare numbers, as −log10 of the molar value.

Example entries and their recorded answers appear below.
>>> value_measured("CN(C)c1ccc(NC(=O)C2CC=CCC2C(=O)O)cc1 (centres undefined)")
5.32
>>> value_measured("Cn1cc(NC(=O)NCc2ccccn2)c2ccccc2c1=O")
5.32
>>> value_measured("CCOc1cc(-c2nnc3[nH]c(=O)n(C)c(=O)c3n2)ccc1OC(C)C")
6.16
>>> value_measured("COc1ccc(Nc2nc(NC3CCCC3)nc3c2cnn3C)cc1")
5.57
>>> value_measured("CC1=NC2c3c(oc(C(=O)NCC4CCCO4)c3C)CCC2S1 (centres undefined)")
5.39
>>> value_measured("Cc1cc(CNC(=O)Nc2ccc3c(c2)OCCO3)c(C)n1-c1ccc(Cl)cc1")
5.07
>>> value_measured("COc1cc(C2CC(=O)N3CN(C4CCCCC4)CSC3=C2C#N)ccc1O (centres undefined)")
5.36
>>> value_measured("O=C(Nc1cc(F)c2nc(N3CCOCC3)ccc2c1)C1CC1")
5.93

I'm hoping you can list pIC50 for every compound here, please.
1. Cc1ccc2c(c1)c1c(n2CC(O)CNCCO)C(=O)CCC1 (centres undefined)
2. Fc1ccc(NCc2ccc3nccnc3c2)c(F)c1
3. COc1cc(OC)c(NC(=O)N2CCn3cccc3C2C)cc1Cl (centres undefined)
4. Cc1c(C(=O)N2CCOCC2)oc2c1-c1nn(CC(=O)NC3CCCC(C)C3C)cc1CC2 (centres undefined)
5. CC(C)Cn1cc(NC(=O)NCCN2CCCCC2)c2ccccc2c1=O
6. CNc1nc(Nc2ccc(OC)cc2)c2cnn(C)c2n1
7. CN1CCc2nc3sc(C(=O)c4ccc(Cl)cc4)c(N)c3cc2C1
8. CC1=NC2c3c(oc(C(=O)NC4CCCC4)c3C)CCC2S1 (centres undefined)

1: 5.30; 2: 5.56; 3: 4.89; 4: 5.57; 5: 5.76; 6: 4.86; 7: 5.41; 8: 5.36

I'm hoping you can list pIC50 for every compound here, please.
1. COc1ccc(NC2c3ncccc3C(=O)N2Cc2ccco2)cc1OC (centres undefined)
2. COc1ccc(Nc2nc(NCCO)nc3c2cnn3C)cc1
3. O=C1c2ccccc2C(Nc2ccc3[nH]c(-c4cccnc4)nc3c2)N1Cc1ccco1 (centres undefined)
4. CCC1=NN(c2ccccc2)C(=O)C1
5. CCC(CC)n1nc(O)c2c(C)cc(=O)[nH]c21
6. CC(C)Cn1cc(NC(=O)Nc2cccc(F)c2)c2ccccc2c1=O
7. Cc1ccc2oc(SCC(=O)Nc3ccc(S(=O)(=O)N4CCCC4)cc3)nc2n1

[4.90, 5.73, 5.01, 5.07, 5.13, 5.65, 4.93]

Report value: pIC50, system: Serine hydroxymethyltransferase, mitochondrial (Homo sapiens, UniProt P34897), compound: CCC(C)NC(=O)Nc1cn(CC(C)C)c(=O)c2ccccc12 (centres undefined) 5.63
